Attribution: patent US8937152B2

# ASSAY SYSTEM: hSSTR5 (Homo sapiens)
# Construct: expressed in transfected cells
# Sequence (P35346 whole entry): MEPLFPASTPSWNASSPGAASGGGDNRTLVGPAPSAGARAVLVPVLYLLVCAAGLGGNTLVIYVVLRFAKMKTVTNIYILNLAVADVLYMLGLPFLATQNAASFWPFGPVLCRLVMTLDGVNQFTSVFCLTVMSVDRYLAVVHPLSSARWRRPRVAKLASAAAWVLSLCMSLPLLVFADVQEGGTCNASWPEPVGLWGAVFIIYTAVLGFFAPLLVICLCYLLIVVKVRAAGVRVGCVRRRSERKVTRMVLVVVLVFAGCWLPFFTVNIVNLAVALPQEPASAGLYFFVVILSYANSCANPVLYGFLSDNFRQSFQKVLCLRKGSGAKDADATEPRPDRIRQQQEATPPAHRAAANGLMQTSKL
# EXPERIMENT SUMMARY: Binding assay, displacement of 3-[125I]iodotyrosyl11 Somatostatin-14
# CONDITION LABEL: recombinant human receptor, cell membranes; 60 min at 25° C.; read-out: IC50 (nM) hSSTR5
# Description: The binding assays were carried out, as is explained below, by using preparations of recombinant human receptors, hSSTR1, hSSTR2, hSSTR3 and hSSTR5, obtained from cell membranes (for example CHO) transfected according to standard methods. […]
IC50 under 2 nM gets true, anything at or over 2 nM gets false.

| MOLECULE | CLASS LABEL |
| --- | --- |
| COc1cc(CC2NC(=O)[C@H](Cc3ccccc3)NC(=O)[C@@H]3C[C@@H](OC(=O)NCCN)CN3C(=O)[C@H](Cc3ccccc3)NC(=O)[C@H](Cc3ccc(OCc4ccccc4)cc3)NC(=O)[C@H](CCCCN)NC2=O)c(OC)c2ccccc12 (single isomer, unassigned) [Example 9] | true |
| COc1ccc(OC)c(CCC2NC(=O)[C@H](Cc3ccccc3)NC(=O)[C@@H]3C[C@@H](OC(=O)NCCN)CN3C(=O)[C@H](Cc3ccccc3)NC(=O)[C@H](Cc3ccc(OCc4ccccc4)cc3)NC(=O)[C@H](CCCCN)NC2=O)c1 (single isomer, unassigned) | true |
| COc1cc2cccc(OC)c2cc1CC1NC(=O)[C@H](Cc2ccccc2)NC(=O)[C@@H]2C[C@@H](OC(=O)NCCN)CN2C(=O)[C@H](Cc2ccccc2)NC(=O)[C@H](COCc2ccccc2)NC(=O)[C@H](CCCCN)NC1=O (single isomer, unassigned) | true |
| COc1cc2cccc(OC)c2cc1CC1NC(=O)[C@H](Cc2ccccc2)NC(=O)[C@@H]2C[C@@H](OC(=O)NCCN)CN2C(=O)[C@H](Cc2ccccc2)NC(=O)[C@H](Cc2ccc(OCc3ccccc3)cc2)NC(=O)[C@H](CCCCN)NC1=O (single isomer, unassigned) | true |
| CNCCNC(=O)O[C@@H]1C[C@H]2C(=O)N[C@@H](Cc3ccccc3)C(=O)NC(Cc3cc4c(OC)cccc4cc3OC)C(=O)N[C@@H](CCCCN)C(=O)N[C@@H](Cc3ccc(OCc4ccccc4)cc3)C(=O)N[C@@H](Cc3ccccc3)C(=O)N2C1 (single isomer, unassigned) | true |
| COc1cc(CC2NC(=O)[C@H](Cc3ccccc3)NC(=O)[C@@H]3C[C@@H](OC(=O)NCCN)CN3C(=O)[C@H](Cc3ccccc3)NC(=O)[C@H](Cc3ccc(OCc4ccccc4)cc3)NC(=O)[C@H](CCCCN)NC2=O)c(OC)c2ccccc12 (single isomer, unassigned) [Example 8] | false |
